Data origin, for the record: ChEMBL document CHEMBL1132448

# protocol_description: Ratio of binding affinity of PNMT to alpha-2 receptors.
endpoint: Selectivity
One number for each entry.

[
  {
    "compound": "Clc1ccc2c(c1Cl)CNCC2",
    "Selectivity": 0.095
  }
]

Dear colleague, could you send me Selectivity for each of the items below? Thanks.
1. FC[C@@H]1Cc2ccc(Br)cc2CN1
2. ClC[C@@H]1Cc2ccccc2CN1
3. OCC1Cc2ccccc2CN1 (stereo not given)
4. O=S(=O)(Nc1ccc(Cl)cc1)c1ccc2c(c1)CNC(CF)C2 (stereo not given)
5. ClC[C@H]1Cc2ccccc2CN1
6. O=[N+]([O-])c1ccc2c(c1)CN[C@H](CF)C2
7. C[C@@H]1Cc2ccccc2CN1

36
0.55
6
220
0.66
160
0.49

I need Selectivity for every entry listed below, if you could help.
1. N#Cc1ccc2c(c1)CN[C@H](CF)C2
2. FC[C@H]1Cc2ccc(Br)cc2CN1

1. 170
2. 6.1

I'm hoping you can list Selectivity for every compound here, please.
1. N#Cc1ccc2c(c1)CN[C@@H](CF)C2
2. FCC1Cc2ccc(Br)cc2CN1 (stereo not given)
3. CC1Cc2ccccc2CN1 (stereo not given)
4. FC[C@@H]1Cc2ccccc2CN1

1. 370
2. 10
3. 0.36
4. 3.7
